conditions: in isopropanol, 283.15 K
readoutLabel: solubility (mole fraction)
One number for each entry.

Lab book: solubility (mole fraction) of O=c1ccc(-c2ccccc2)n[nH]1 noted as 0.00489

---

conditions: in ethylene glycol, 318.15 K
readoutLabel: solubility (mole fraction)
Give bare numbers.

Lab book: solubility (mole fraction) of O=c1ccc(-c2ccccc2)n[nH]1 noted as 0.0124

---

conditions: in ethanol, 288.15 K
readoutLabel: solubility (mole fraction)
Give bare numbers.

Lab book: solubility (mole fraction) of O=c1ccc(-c2ccccc2)n[nH]1 noted as 0.00342

---

conditions: in water, 313.15 K
readoutLabel: solubility (mole fraction)

Lab book: solubility (mole fraction) of O=c1ccc(-c2ccccc2)n[nH]1 noted as 1.02e-05

---

settings: in methanol, 283.15 K
readoutLabel: solubility (mole fraction)
Answers are plain numbers.

Lab book: solubility (mole fraction) of O=c1ccc(-c2ccccc2)n[nH]1 noted as 0.00153

---

conditions: in isopropanol, 303.15 K
readoutLabel: solubility (mole fraction)
Numbers only.

Lab book: solubility (mole fraction) of O=c1ccc(-c2ccccc2)n[nH]1 noted as 0.0094

---

details: in isopropanol, 308.15 K
readoutLabel: solubility (mole fraction)
One number for each entry.

Lab book: solubility (mole fraction) of O=c1ccc(-c2ccccc2)n[nH]1 noted as 0.0109

---

settings: in methanol, 318.15 K
readoutLabel: solubility (mole fraction)

Lab book: solubility (mole fraction) of O=c1ccc(-c2ccccc2)n[nH]1 noted as 0.00502

---

settings: in ethylene glycol, 293.15 K
readoutLabel: solubility (mole fraction)
One number for each entry.

Lab book: solubility (mole fraction) of O=c1ccc(-c2ccccc2)n[nH]1 noted as 0.00536

---

details: in isopropanol, 318.15 K
readoutLabel: solubility (mole fraction)
Numbers only.

Lab book: solubility (mole fraction) of O=c1ccc(-c2ccccc2)n[nH]1 noted as 0.0142

---

conditions: in methanol, 308.15 K
readoutLabel: solubility (mole fraction)
Answers are plain numbers.

Lab book: solubility (mole fraction) of O=c1ccc(-c2ccccc2)n[nH]1 noted as 0.00365

---

settings: in ethanol, 293.15 K
readoutLabel: solubility (mole fraction)
Give bare numbers.

Lab book: solubility (mole fraction) of O=c1ccc(-c2ccccc2)n[nH]1 noted as 0.00402

---

details: in ethylene glycol, 278.15 K
readoutLabel: solubility (mole fraction)
Answers are plain numbers.

Lab book: solubility (mole fraction) of O=c1ccc(-c2ccccc2)n[nH]1 noted as 0.00304

---

conditions: in methanol, 288.15 K
readoutLabel: solubility (mole fraction)
Numbers only.

Lab book: solubility (mole fraction) of O=c1ccc(-c2ccccc2)n[nH]1 noted as 0.00183

---

conditions: in ethylene glycol, 303.15 K
readoutLabel: solubility (mole fraction)
One number for each entry.

Lab book: solubility (mole fraction) of O=c1ccc(-c2ccccc2)n[nH]1 noted as 0.0076

---

conditions: in ethylene glycol, 298.15 K
readoutLabel: solubility (mole fraction)
Give bare numbers.

Lab book: solubility (mole fraction) of O=c1ccc(-c2ccccc2)n[nH]1 noted as 0.00646

---

conditions: in water, 298.15 K
readoutLabel: solubility (mole fraction)

Lab book: solubility (mole fraction) of O=c1ccc(-c2ccccc2)n[nH]1 noted as 5.84e-06

---

settings: in ethanol, 308.15 K
readoutLabel: solubility (mole fraction)
Give bare numbers.

Lab book: solubility (mole fraction) of O=c1ccc(-c2ccccc2)n[nH]1 noted as 0.00637
